Tested on: Raw264.7 cells
Experiment: Cell number (CellNb) from image analysis of the phenotypic cell-based assay
quantity: Primary QIM CellNb

CCOc1ccc(/C(C)=N/NC(N)=S)cc1 [IPK 000 080 37]; 110.8
CCOC(=O)c1c(CSc2ccccc2)n(Cc2ccccc2)c2ccc(O)c(CN(C)C)c12 [IPK 000 016 05]; 192.0
COc1ccc(OCCNC(=O)c2cc([N+](=O)[O-])cc([N+](=O)[O-])c2)cc1 [IPK 000 028 35]; 315.3
COc1ccccc1OCCNC(=O)c1cc([N+](=O)[O-])cc([N+](=O)[O-])c1 [IPK 000 027 74]; 366.0
O=C(N/N=C/c1ccco1)c1ccncc1 [IPK 000 013 67]; 358.0
COc1cccc(OCCNC(=O)c2cc([N+](=O)[O-])cc([N+](=O)[O-])c2)c1 [IPK 000 027 77]; 378.0
O=C(Nc1ccc(Cl)cc1[N+](=O)[O-])c1ccc([N+](=O)[O-])cc1Cl [IPK 000 049 00]; 108.0
C/C(=N\NC(N)=S)c1ccc(Cl)cc1 [IPK 000 002 17]; 235.5
O=C(NCCOCc1ccccc1)c1cc([N+](=O)[O-])cc([N+](=O)[O-])c1 [IPK 000 027 91]; 410.8
N#CC(C#N)=NNc1ccc(I)cc1 [IPK 000 007 31]; 61.3
